# target_under_test: Tyrosine-protein kinase Lck (Homo sapiens) (UniProt P06239)
# Sequence (P06239 2-509 limits assumed): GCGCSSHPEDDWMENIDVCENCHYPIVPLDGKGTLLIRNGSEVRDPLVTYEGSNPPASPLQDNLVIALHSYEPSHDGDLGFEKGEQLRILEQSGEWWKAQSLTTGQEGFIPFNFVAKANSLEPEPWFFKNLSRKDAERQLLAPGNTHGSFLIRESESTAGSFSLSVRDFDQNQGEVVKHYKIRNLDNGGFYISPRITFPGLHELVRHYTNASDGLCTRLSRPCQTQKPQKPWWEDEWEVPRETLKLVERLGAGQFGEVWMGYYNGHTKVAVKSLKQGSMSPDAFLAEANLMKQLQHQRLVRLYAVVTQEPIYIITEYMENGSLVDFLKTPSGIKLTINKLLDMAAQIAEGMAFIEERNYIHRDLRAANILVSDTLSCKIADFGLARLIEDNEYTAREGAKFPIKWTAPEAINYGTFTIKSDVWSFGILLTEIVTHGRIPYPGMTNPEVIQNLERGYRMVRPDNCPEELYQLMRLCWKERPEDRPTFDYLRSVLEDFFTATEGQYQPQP
# procedure_text: Inhibition of Lck (unknown origin) at 10 uM relative to control
measured_property: inhibition (%)

>  <sample_smiles>
Cc1n[nH]c2ccnc(Nc3ccccc3F)c12

>  <target_under_test>
Tyrosine-protein kinase Lck (Homo sapiens) (UniProt P06239)

>  <readout_number>
22

$$$$
>  <sample_smiles>
Cc1n[nH]c2ccnc(NC3CCCCC3)c12

>  <target_under_test>
Tyrosine-protein kinase Lck (Homo sapiens) (UniProt P06239)

>  <readout_number>
13

$$$$
>  <sample_smiles>
Cc1n[nH]c2ccnc(OC3CCCCC3)c12

>  <target_under_test>
Tyrosine-protein kinase Lck (Homo sapiens) (UniProt P06239)

>  <readout_number>
47

$$$$
>  <sample_smiles>
Cc1n[nH]c2ccnc(Nc3ccc4ncsc4c3)c12

>  <target_under_test>
Tyrosine-protein kinase Lck (Homo sapiens) (UniProt P06239)

>  <readout_number>
8

$$$$

###

# procedure_text: Stability in human liver microsomes assessed as compound turnover rate measured after 40 mins
# Format: ADME, Microsome
# conditions: read-out: Drug metabolism
measured_property: metabolised at 40 min (%)

>  <sample_smiles>
Cc1n[nH]c2ccnc(NC3CCOCC3)c12

>  <readout_number>
0

$$$$
>  <sample_smiles>
Cc1n[nH]c2ccnc(OC3CCC3)c12

>  <readout_number>
22

$$$$
>  <sample_smiles>
c1cc(-c2n[nH]c3ccnc(NC4CCOCC4)c23)cc(N2CCOCC2)n1

>  <readout_number>
17

$$$$

###

# target_under_test: MAP/microtubule affinity-regulating kinase 3 (Homo sapiens) (UniProt P27448)
# Sequence (P27448 whole entry, looked up): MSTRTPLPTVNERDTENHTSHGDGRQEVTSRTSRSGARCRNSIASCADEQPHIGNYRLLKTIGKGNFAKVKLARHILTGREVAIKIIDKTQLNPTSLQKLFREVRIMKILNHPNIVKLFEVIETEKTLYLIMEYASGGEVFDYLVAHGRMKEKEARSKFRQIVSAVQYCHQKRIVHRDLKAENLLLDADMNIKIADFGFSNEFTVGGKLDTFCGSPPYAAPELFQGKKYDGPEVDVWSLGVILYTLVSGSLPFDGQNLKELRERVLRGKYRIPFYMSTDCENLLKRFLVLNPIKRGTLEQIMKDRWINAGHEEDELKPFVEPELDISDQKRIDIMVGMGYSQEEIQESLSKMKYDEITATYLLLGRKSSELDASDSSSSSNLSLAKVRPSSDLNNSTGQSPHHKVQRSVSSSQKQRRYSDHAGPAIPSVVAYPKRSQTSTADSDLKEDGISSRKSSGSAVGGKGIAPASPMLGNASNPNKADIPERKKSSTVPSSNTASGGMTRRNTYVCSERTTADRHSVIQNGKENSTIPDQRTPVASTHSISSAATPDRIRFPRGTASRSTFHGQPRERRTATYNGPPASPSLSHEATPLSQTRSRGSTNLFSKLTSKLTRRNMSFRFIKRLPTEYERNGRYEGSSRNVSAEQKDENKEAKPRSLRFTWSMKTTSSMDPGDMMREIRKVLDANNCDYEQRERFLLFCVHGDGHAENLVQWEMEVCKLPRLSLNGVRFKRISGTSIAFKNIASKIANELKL
# procedure_text: Inhibition of MARK3 (unknown origin) at 10 uM relative to control
Listing: inhibition of selected compounds
measured_property: inhibition

>  <sample_smiles>
Cc1n[nH]c2ccnc(Nc3ccc4ncsc4c3)c12

>  <result>
36%

$$$$
>  <sample_smiles>
Cc1n[nH]c2ccnc(Nc3ccccc3F)c12

>  <result>
46%

$$$$
>  <sample_smiles>
Cc1n[nH]c2ccnc(OC3CCCCC3)c12

>  <result>
46%

$$$$
>  <sample_smiles>
Cc1n[nH]c2ccnc(NC3CCCCC3)c12

>  <result>
34%

$$$$

###

# target_under_test: Serine/threonine-protein kinase Chk1 (Homo sapiens)
# procedure_text: Inhibition of CHK1 (unknown origin) at 10 uM relative to control

>  <sample_smiles>
Cc1n[nH]c2ccnc(NC3CCCCC3)c12

>  <target_under_test>
Serine/threonine-protein kinase Chk1 (Homo sapiens)

>  <inhibition>
0%

$$$$
>  <sample_smiles>
Cc1n[nH]c2ccnc(OC3CCCCC3)c12

>  <target_under_test>
Serine/threonine-protein kinase Chk1 (Homo sapiens)

>  <inhibition>
27%

$$$$
>  <sample_smiles>
Cc1n[nH]c2ccnc(Nc3ccc4ncsc4c3)c12

>  <target_under_test>
Serine/threonine-protein kinase Chk1 (Homo sapiens)

>  <inhibition>
13%

$$$$
>  <sample_smiles>
Cc1n[nH]c2ccnc(Nc3ccccc3F)c12

>  <target_under_test>
Serine/threonine-protein kinase Chk1 (Homo sapiens)

>  <inhibition>
43%

$$$$

###

Listing: inhibition of selected compounds
# target_under_test: MAP kinase-activated protein kinase 5 (Homo sapiens)
# procedure_text: Inhibition of PRAK (unknown origin) at 10 uM relative to control

>  <sample_smiles>
Cc1n[nH]c2ccnc(Nc3ccccc3F)c12

>  <inhibition>
11%

$$$$
>  <sample_smiles>
Cc1n[nH]c2ccnc(Nc3ccc4ncsc4c3)c12

>  <inhibition>
10%

$$$$
>  <sample_smiles>
Cc1n[nH]c2ccnc(OC3CCCCC3)c12

>  <inhibition>
7%

$$$$
>  <sample_smiles>
Cc1n[nH]c2ccnc(NC3CCCCC3)c12

>  <inhibition>
3%

$$$$

###

# target_under_test: Serine/threonine-protein kinase Chk2 (Homo sapiens) (UniProt O96017)
# Sequence (O96017 whole entry): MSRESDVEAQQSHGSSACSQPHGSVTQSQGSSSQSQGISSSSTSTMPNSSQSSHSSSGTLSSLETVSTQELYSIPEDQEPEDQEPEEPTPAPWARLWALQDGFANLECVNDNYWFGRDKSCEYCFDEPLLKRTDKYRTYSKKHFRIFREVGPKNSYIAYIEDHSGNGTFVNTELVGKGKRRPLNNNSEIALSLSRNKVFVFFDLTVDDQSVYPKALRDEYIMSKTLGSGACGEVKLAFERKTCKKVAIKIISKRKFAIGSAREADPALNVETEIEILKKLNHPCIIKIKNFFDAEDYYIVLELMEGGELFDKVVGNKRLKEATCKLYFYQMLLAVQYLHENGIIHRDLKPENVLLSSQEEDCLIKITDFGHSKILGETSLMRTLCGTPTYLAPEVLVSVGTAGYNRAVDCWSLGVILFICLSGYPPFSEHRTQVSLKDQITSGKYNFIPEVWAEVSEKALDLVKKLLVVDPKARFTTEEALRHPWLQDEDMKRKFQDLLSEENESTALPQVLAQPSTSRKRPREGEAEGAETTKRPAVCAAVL
# procedure_text: Inhibition of CHK2 (unknown origin) at 10 uM relative to control
measured_property: inhibition (%)

>  <sample_smiles>
Cc1n[nH]c2ccnc(OC3CCCCC3)c12

>  <measured_property>
inhibition

>  <readout_number>
63

$$$$
>  <sample_smiles>
Cc1n[nH]c2ccnc(NC3CCCCC3)c12

>  <measured_property>
inhibition

>  <readout_number>
37

$$$$
>  <sample_smiles>
Cc1n[nH]c2ccnc(Nc3ccc4ncsc4c3)c12

>  <measured_property>
inhibition

>  <readout_number>
36

$$$$
>  <sample_smiles>
Cc1n[nH]c2ccnc(Nc3ccccc3F)c12

>  <measured_property>
inhibition

>  <readout_number>
26

$$$$

###

# procedure_text: Ratio of drug level in mouse brain to plasma
# conditions: read-out: BPR
Listing: Kp of selected compounds

>  <sample_smiles>
Cc1n[nH]c2ccnc(NC3CCOCC3)c12

>  <Kp>
1.6

$$$$
>  <sample_smiles>
Cc1n[nH]c2ccnc(NC3CCCCC3)c12

>  <Kp>
4

$$$$

###

# target_under_test: Leucine-rich repeat serine/threonine-protein kinase 2 (Homo sapiens, UniProt Q5S007, G2019S)
# Sequence (Q5S007 whole entry G2019S, the tested form may be a part): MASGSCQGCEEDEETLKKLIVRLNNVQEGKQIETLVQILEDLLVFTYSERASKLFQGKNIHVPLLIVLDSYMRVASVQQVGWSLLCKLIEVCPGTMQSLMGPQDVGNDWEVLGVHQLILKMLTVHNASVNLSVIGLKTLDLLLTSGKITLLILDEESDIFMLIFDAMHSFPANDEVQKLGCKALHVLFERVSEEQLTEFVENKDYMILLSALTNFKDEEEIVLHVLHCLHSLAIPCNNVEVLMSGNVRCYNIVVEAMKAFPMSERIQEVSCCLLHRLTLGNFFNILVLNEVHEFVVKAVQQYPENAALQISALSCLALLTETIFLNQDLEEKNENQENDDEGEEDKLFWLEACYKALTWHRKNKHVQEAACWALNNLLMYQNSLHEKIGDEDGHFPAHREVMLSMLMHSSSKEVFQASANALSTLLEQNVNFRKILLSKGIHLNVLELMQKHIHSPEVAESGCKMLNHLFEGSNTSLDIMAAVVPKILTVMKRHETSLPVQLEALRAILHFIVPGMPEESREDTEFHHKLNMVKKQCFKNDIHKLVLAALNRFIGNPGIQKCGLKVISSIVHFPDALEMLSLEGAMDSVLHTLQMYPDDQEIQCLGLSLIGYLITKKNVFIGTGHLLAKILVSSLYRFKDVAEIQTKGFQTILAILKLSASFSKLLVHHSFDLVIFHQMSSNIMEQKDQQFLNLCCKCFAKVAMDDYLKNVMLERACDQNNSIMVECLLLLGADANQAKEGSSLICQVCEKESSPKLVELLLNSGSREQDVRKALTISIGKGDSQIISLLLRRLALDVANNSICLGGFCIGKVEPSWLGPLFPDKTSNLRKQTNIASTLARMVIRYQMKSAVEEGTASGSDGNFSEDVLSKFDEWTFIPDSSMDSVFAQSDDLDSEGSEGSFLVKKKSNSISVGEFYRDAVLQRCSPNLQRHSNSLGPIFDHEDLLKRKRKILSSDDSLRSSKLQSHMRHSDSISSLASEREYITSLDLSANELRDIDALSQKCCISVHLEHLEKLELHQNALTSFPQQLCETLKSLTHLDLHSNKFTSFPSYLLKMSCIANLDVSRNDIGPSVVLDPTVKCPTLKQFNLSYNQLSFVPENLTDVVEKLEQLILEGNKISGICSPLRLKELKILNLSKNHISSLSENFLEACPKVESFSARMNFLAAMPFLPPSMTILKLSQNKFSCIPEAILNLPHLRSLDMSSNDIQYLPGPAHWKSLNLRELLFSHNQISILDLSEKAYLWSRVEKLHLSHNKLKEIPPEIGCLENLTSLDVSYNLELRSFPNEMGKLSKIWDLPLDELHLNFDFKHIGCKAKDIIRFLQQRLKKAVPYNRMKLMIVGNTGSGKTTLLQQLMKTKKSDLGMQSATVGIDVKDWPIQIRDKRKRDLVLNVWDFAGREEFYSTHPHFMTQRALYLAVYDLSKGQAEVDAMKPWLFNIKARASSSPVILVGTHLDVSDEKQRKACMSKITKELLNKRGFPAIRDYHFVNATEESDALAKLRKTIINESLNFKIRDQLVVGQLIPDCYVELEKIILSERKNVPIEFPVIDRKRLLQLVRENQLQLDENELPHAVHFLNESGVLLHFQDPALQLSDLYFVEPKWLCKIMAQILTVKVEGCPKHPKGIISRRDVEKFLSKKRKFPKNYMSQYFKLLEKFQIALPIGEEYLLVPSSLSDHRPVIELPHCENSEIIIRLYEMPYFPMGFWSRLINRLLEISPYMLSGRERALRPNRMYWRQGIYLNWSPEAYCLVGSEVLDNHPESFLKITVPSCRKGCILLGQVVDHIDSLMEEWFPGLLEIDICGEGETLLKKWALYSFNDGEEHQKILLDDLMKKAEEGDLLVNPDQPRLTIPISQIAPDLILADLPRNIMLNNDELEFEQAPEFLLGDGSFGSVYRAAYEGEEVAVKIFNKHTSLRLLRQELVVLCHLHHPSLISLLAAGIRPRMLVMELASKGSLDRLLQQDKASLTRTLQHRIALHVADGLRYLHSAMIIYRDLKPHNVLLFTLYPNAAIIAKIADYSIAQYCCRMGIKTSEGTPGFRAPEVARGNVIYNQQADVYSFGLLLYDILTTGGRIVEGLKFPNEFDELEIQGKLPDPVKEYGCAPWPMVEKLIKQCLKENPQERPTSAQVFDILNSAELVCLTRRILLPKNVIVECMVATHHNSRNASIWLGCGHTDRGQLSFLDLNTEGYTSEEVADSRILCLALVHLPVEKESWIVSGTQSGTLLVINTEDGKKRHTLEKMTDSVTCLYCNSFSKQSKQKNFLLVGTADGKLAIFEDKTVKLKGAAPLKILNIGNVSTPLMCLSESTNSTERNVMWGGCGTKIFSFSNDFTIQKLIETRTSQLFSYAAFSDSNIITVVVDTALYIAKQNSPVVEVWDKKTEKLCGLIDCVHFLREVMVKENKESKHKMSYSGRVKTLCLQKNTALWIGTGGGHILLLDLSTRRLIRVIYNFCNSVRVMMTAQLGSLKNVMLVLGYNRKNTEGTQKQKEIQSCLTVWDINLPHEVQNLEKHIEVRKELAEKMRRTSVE
# procedure_text: Inhibition of recombinant human GST-tagged LRRK2 G2019S mutant catalytic domain (970 to 2527 residues) expressed in baculovirus expression system by radiometric assay
pIC50: −log10 of the molar value.
Entry flag: rule met if pIC50 reaches 6; rule not met if it does not.

>  <sample_smiles>
CC(C)Cn1cc(-c2n[nH]c3ccnc(NC4CCOCC4)c23)cn1

>  <group_label>
rule met

$$$$
>  <sample_smiles>
CCOc1nccc2[nH]nc(C)c12

>  <group_label>
rule met

$$$$
>  <sample_smiles>
Cc1n[nH]c2ccnc(NC3CC3)c12

>  <group_label>
rule not met

$$$$
>  <sample_smiles>
Cc1n[nH]c2ccnc(N(C)C3CCCCC3)c12

>  <group_label>
rule not met

$$$$
>  <sample_smiles>
Cc1n[nH]c2ccnc(NCC3CC3)c12

>  <group_label>
rule not met

$$$$
>  <sample_smiles>
Cc1n[nH]c2ccnc(OC3CCCCC3)c12

>  <group_label>
rule met

$$$$
>  <sample_smiles>
Cc1noc2ccnc(NC3CCCCC3)c12

>  <group_label>
rule not met

$$$$
>  <sample_smiles>
CC(C)n1cc(-c2n[nH]c3ccnc(OC4CCCCC4)c23)cn1

>  <group_label>
rule met

$$$$
>  <sample_smiles>
Cc1n[nH]c2ccnc(OC(C)C)c12

>  <group_label>
rule met

$$$$
>  <sample_smiles>
Cc1n[nH]c2ccnc(O[C@@H]3CCOC3)c12

>  <group_label>
rule met

$$$$
>  <sample_smiles>
Cc1n[nH]c2ccnc(NCc3ccc(Cl)cc3)c12

>  <group_label>
rule not met

$$$$
>  <sample_smiles>
c1cc2[nH]nc(-c3cnn(C4CCCC4)c3)c2c(NC2CCOCC2)n1

>  <group_label>
rule met

$$$$
>  <sample_smiles>
Cc1n[nH]c2ccnc(OC3CCCC3)c12

>  <group_label>
rule met

$$$$
>  <sample_smiles>
Cc1n[nH]c2ccnc(Nc3cccnc3)c12

>  <group_label>
rule not met

$$$$
>  <sample_smiles>
Cc1nn(C)c2ccnc(NC3CCCCC3)c12

>  <group_label>
rule not met

$$$$
>  <sample_smiles>
Cc1n[nH]c2ccnc(OC3CCC3)c12

>  <group_label>
rule met

$$$$

###

# procedure_text: Lipophilicity, log D of the compound at pH 7.4
# Type: physicochemical
# conditions: buffer
measured_property: logD

>  <sample_smiles>
CC(C)n1cc(-c2n[nH]c3ccnc(OC4CCCCC4)c23)cn1

>  <measured_property>
logD

>  <inequality_symbol>
=

>  <readout_number>
3.7

$$$$
>  <sample_smiles>
Cc1n[nH]c2ccnc(NC3CCOCC3)c12

>  <measured_property>
logD

>  <inequality_symbol>
=

>  <readout_number>
1.2

$$$$
>  <sample_smiles>
CC(C)n1cc(-c2n[nH]c3ccnc(NC4CCCCC4)c23)cn1

>  <measured_property>
logD

>  <inequality_symbol>
=

>  <readout_number>
3.2

$$$$
>  <sample_smiles>
Cn1cc(-c2n[nH]c3ccnc(NC4CCCCC4)c23)cn1

>  <measured_property>
logD

>  <inequality_symbol>
=

>  <readout_number>
2.7

$$$$
>  <sample_smiles>
Cc1n[nH]c2ccnc(OC3CCCCC3)c12

>  <measured_property>
logD

>  <inequality_symbol>
>

>  <readout_number>
4

$$$$

###

# target_under_test: Tyrosine-protein kinase SYK (Homo sapiens)
# procedure_text: Inhibition of SYK (unknown origin) at 10 uM relative to control

>  <sample_smiles>
Cc1n[nH]c2ccnc(Nc3ccccc3F)c12

>  <inhibition>
0%

$$$$
>  <sample_smiles>
Cc1n[nH]c2ccnc(NC3CCCCC3)c12

>  <inhibition>
17%

$$$$
>  <sample_smiles>
Cc1n[nH]c2ccnc(OC3CCCCC3)c12

>  <inhibition>
16%

$$$$
>  <sample_smiles>
Cc1n[nH]c2ccnc(Nc3ccc4ncsc4c3)c12

>  <inhibition>
0%

$$$$
